# System: 898857-211-R-J1-PDC complex spheroids, growth % test/control
# Protocol Description: Anticancer human tumor 898857-211-R-J1-PDC patient-derived melanoma cell line growth inhibition [RAS]
# Measurement Conditions: second compound 0.000949 µM; first compound 0.01 µM; stronger effect = lower value
Measured Metric: viability, T/C (%)
Only the number, expressed in %, is required.

{"Compound": "C=CC(=O)Nc1cc(Nc2nccc(-c3cn(C)c4ccccc34)n2)c(OC)cc1N(C)CCN(C)C + CCn1c(-c2cc(N3CCN(C)CC3)cnc2C(C)OC)c2c3cc(ccc31)-c1csc(n1)CC(NC(=O)C1CC1C)C(=O)N1CCCC(N1)C(=O)OCC(C)(C)C2", "Measured Metric": "viability, T/C", "Unit String": "%", "Numeric Value": 101}

Query string: Look at this compound and give its reported viability, T/C. CC(C)n1nc(-c2ccc3oc(N)nc3c2)c2c(N)ncnc21 + CCn1c(-c2cccnc2C(C)OC)c2c3cc(ccc31)N1CCOC(CC(NC(=O)C(C(C)C)N(C)C(=O)C3(F)CCN(C(=O)C#CC(C)(C)N(C)C)CC3)C(=O)N3CCCC(N3)C(=O)OCC(C)(C)C2)C1
Result string: 68.7

Query string: Item: O=C(c1ccc(F)c(F)c1Nc1ccc(I)cc1F)N1CC(O)([C@@H]2CCCCN2)C1 + CCn1c(-c2cc(N3CCN(C)CC3)cnc2C(C)OC)c2c3cc(ccc31)-c1csc(n1)CC(NC(=O)C1CC1C)C(=O)N1CCCC(N1)C(=O)OCC(C)(C)C2
Result string: 24.2

Query string: What about this compound? Nc1ccn(C2OC(CO)C(O)C2(F)F)c(=O)n1 (centres undefined) + CCn1c(-c2cc(N3CCN(C)CC3)cnc2C(C)OC)c2c3cc(ccc31)-c1csc(n1)CC(NC(=O)C1CC1C)C(=O)N1CCCC(N1)C(=O)OCC(C)(C)C2
Result string: 15.3

* * *

# System: 898857-211-R-J1-PDC complex spheroids, growth % test/control
# Protocol Description: Anticancer human tumor 898857-211-R-J1-PDC cell line growth inhibition [RAS];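 also: spheroids exposed to compound for seven days before readout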
# Measurement Conditions: curve of first compound; second compound 0.00949 µM
Measured Metric: IC50 (nM)
Dear colleague, please return just the value in nM, with no unit written.

Query string: Dear colleague, I am looking for the recorded IC50 of the following compound: C[C@@H](NC(=O)c1ncnc(N)c1Cl)c1ncc(C(=O)Nc2cc(C(F)(F)F)c(Cl)cn2)s1 + CCn1c(-c2cc(N3CCN(C)CC3)cnc2C(C)OC)c2c3cc(ccc31)-c1csc(n1)CC(NC(=O)C1CC1C)C(=O)N1CCCC(N1)C(=O)OCC(C)(C)C2
Result string: 1300

* * *

Measured viability, T/C of individual entries
# System: 898857-211-R-J1-PDC complex spheroids, growth % test/control
# Protocol Description: Anticancer human tumor 898857-211-R-J1-PDC cell line growth inhibition [RAS];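 also: spheroids exposed to compound for seven days before readout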;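 as to viability, T/C: 100% = DMSO vehicle control wells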
# Measurement Conditions: second compound 0.003 µM; first compound 0.1 µM; stronger effect = lower value
Report only the number, with the unit % understood.

Some compounds with known viability, T/C results, for comparison:
{"Compound": "CC(=O)OC12COC1CC(O)C1(C)C(=O)C(O)C3=C(C)C(OC(=O)C(O)C(NC(=O)OC(C)(C)C)c4ccccc4)CC(O)(C(OC(=O)c4ccccc4)C21)C3(C)C (stereo not drawn) + CCn1c(-c2cc(N3CCN(C)CC3)cnc2C(C)OC)c2c3cc(ccc31)-c1csc(n1)CC(NC(=O)C1CC1C)C(=O)N1CCCC(N1)C(=O)OCC(C)(C)C2", "viability, T/C, %": 12.9}
{"Compound": "O=C(c1ccc(F)c(F)c1Nc1ccc(I)cc1F)N1CC(O)([C@@H]2CCCCN2)C1 + CCn1c(-c2cc(N3CCN(C)CC3)cnc2C(C)OC)c2c3cc(ccc31)-c1csc(n1)CC(NC(=O)C1CC1C)C(=O)N1CCCC(N1)C(=O)OCC(C)(C)C2", "viability, T/C, %": 12.4}
{"Compound": "CC(C)n1nc(-c2ccc3oc(N)nc3c2)c2c(N)ncnc21 + CCn1c(-c2cc(N3CCN(C)CC3)cnc2C(C)OC)c2c3cc(ccc31)-c1csc(n1)CC(NC(=O)C1CC1C)C(=O)N1CCCC(N1)C(=O)OCC(C)(C)C2", "viability, T/C, %": 14.1}
{"Compound": "CC(Nc1ccc2c(c1)OCCn1cc(N3C(=O)OCC3C(F)F)nc1-2)C(N)=O (stereo not drawn) + CCn1c(-c2cccnc2C(C)OC)c2c3cc(ccc31)N1CCOC(CC(NC(=O)C(C(C)C)N(C)C(=O)C3(F)CCN(C(=O)C#CC(C)(C)N(C)C)CC3)C(=O)N3CCCC(N3)C(=O)OCC(C)(C)C2)C1", "viability, T/C, %": 103}
{"Compound": "CCC(CC)c1cc(NC2CCC(N)C2)n2nccc2n1 (stereo not drawn) + CCn1c(-c2cc(N3CCN(C)CC3)cnc2C(C)OC)c2c3cc(ccc31)-c1csc(n1)CC(NC(=O)C1CC1C)C(=O)N1CCCC(N1)C(=O)OCC(C)(C)C2", "viability, T/C, %": 94}

Query string: What does the record list as viability, T/C for NC1c2ccccc2OC12CCN(c1cnc3c(N4CCCc5ncccc54)n[nH]c3n1)CC2 (stereo not drawn) + CCn1c(-c2cc(N3CCN(C)CC3)cnc2C(C)OC)c2c3cc(ccc31)-c1csc(n1)CC(NC(=O)C1CC1C)C(=O)N1CCCC(N1)C(=O)OCC(C)(C)C2 ?
Result string: 87.9

Query string: Try this compound next: C=CC(=O)Nc1cc(Nc2nccc(-c3cn(C)c4ccccc34)n2)c(OC)cc1N(C)CCN(C)C + CCn1c(-c2cccnc2C(C)OC)c2c3cc(ccc31)N1CCOC(CC(NC(=O)C(C(C)C)N(C)C(=O)C3(F)CCN(C(=O)C#CC(C)(C)N(C)C)CC3)C(=O)N3CCCC(N3)C(=O)OCC(C)(C)C2)C1
Result string: 95.4

Query string: Consider next the compound CCC(CC)c1cc(NC2CCC(N)C2)n2nccc2n1 (stereo not drawn) + CCn1c(-c2cccnc2C(C)OC)c2c3cc(ccc31)N1CCOC(CC(NC(=O)C(C(C)C)N(C)C(=O)C3(F)CCN(C(=O)C#CC(C)(C)N(C)C)CC3)C(=O)N3CCCC(N3)C(=O)OCC(C)(C)C2)C1 in the same way.
Result string: 106

* * *

# Test system: 898857-211-R-J1-PDC complex spheroids, growth % test/control
# Protocol Description: Anticancer human tumor 898857-211-R-J1-PDC cell line growth inhibition [RAS]; active = viability on the fitted dose curve at most 10% of control; inactive = the rest;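 also: spheroids exposed to compound for seven days before readout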
# Measurement Conditions: second compound 0.3 µM; first compound 0.0316 µM
Respond using exactly one of the listed classes: active, inactive

{"Compound": "CCC(CC)c1cc(NC2CCC(N)C2)n2nccc2n1 (stereo not drawn) + CCn1c(-c2cc(N3CCN(C)CC3)cnc2C(C)OC)c2c3cc(ccc31)-c1csc(n1)CC(NC(=O)C1CC1C)C(=O)N1CCCC(N1)C(=O)OCC(C)(C)C2", "Classification": "inactive"}
{"Compound": "Cc1nc(N2CCC3(CC2)COC(C)C3N)c(CO)nc1Sc1ccnc(N)c1Cl (stereo not drawn) + CCn1c(-c2cc(N3CCN(C)CC3)cnc2C(C)OC)c2c3cc(ccc31)-c1csc(n1)CC(NC(=O)C1CC1C)C(=O)N1CCCC(N1)C(=O)OCC(C)(C)C2", "Classification": "inactive"}
{"Compound": "CC(=O)OC12COC1CC(O)C1(C)C(=O)C(O)C3=C(C)C(OC(=O)C(O)C(NC(=O)OC(C)(C)C)c4ccccc4)CC(O)(C(OC(=O)c4ccccc4)C21)C3(C)C (stereo not drawn) + CCn1c(-c2cccnc2C(C)OC)c2c3cc(ccc31)N1CCOC(CC(NC(=O)C(C(C)C)N(C)C(=O)C3(F)CCN(C(=O)C#CC(C)(C)N(C)C)CC3)C(=O)N3CCCC(N3)C(=O)OCC(C)(C)C2)C1", "Classification": "active"}
{"Compound": "CC(Nc1ccc2c(c1)OCCn1cc(N3C(=O)OCC3C(F)F)nc1-2)C(N)=O (stereo not drawn) + CCn1c(-c2cc(N3CCN(C)CC3)cnc2C(C)OC)c2c3cc(ccc31)-c1csc(n1)CC(NC(=O)C1CC1C)C(=O)N1CCCC(N1)C(=O)OCC(C)(C)C2", "Classification": "inactive"}
{"Compound": "CC(=O)OC12COC1CC(O)C1(C)C(=O)C(O)C3=C(C)C(OC(=O)C(O)C(NC(=O)OC(C)(C)C)c4ccccc4)CC(O)(C(OC(=O)c4ccccc4)C21)C3(C)C (stereo not drawn) + CCn1c(-c2cc(N3CCN(C)CC3)cnc2C(C)OC)c2c3cc(ccc31)-c1csc(n1)CC(NC(=O)C1CC1C)C(=O)N1CCCC(N1)C(=O)OCC(C)(C)C2", "Classification": "inactive"}

Query string: # outcome recorded in this test, key = Cc1nc(N2CCC3(CC2)COC(C)C3N)c(CO)nc1Sc1ccnc(N)c1Cl (stereo not drawn) + CCn1c(-c2cccnc2C(C)OC)c2c3cc(ccc31)N1CCOC(CC(NC(=O)C(C(C)C)N(C)C(=O)C3(F)CCN(C(=O)C#CC(C)(C)N(C)C)CC3)C(=O)N3CCCC(N3)C(=O)OCC(C)(C)C2)C1
Result string: inactive

Query string: Same thing, different compound: CC(C)n1nc(-c2ccc3oc(N)nc3c2)c2c(N)ncnc21 + CCn1c(-c2cccnc2C(C)OC)c2c3cc(ccc31)N1CCOC(CC(NC(=O)C(C(C)C)N(C)C(=O)C3(F)CCN(C(=O)C#CC(C)(C)N(C)C)CC3)C(=O)N3CCCC(N3)C(=O)OCC(C)(C)C2)C1
Result string: inactive

Query string: Another compound to check: CC(C)NCC(C(=O)N1CCN(c2ncnc3c2C(C)CC3O)CC1)c1ccc(Cl)cc1 (stereo not drawn) + CCn1c(-c2cc(N3CCN(C)CC3)cnc2C(C)OC)c2c3cc(ccc31)-c1csc(n1)CC(NC(=O)C1CC1C)C(=O)N1CCCC(N1)C(=O)OCC(C)(C)C2
Result string: inactive
